B1: SLC6A17 (parent)
chain: HMFTPKLDKMLDPQVWREAATQVF

Variants of: B1
Test: protein stability index of a GFP-peptide fusion (GPS, HEK-293T) (PSI 1-6); higher = more stable;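 further: lentivirally expressed fusions sorted by FACS into six bins by GFP to DsRed ratio, PSI derived from sequencing read proportions per bin multiplied by bin number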
Settings: c terminus: a fixed tail appended
OBSERVABLE: protein stability index
I only need the number, thanks.

   mutant_id               observable  quantitative_result
0        T4E  protein stability index                 2.31

Returns the measured protein stability index for the input variant. Input: F24P
3.17

Returns the measured protein stability index for the input variant. Input: E18Y
1.75

Returns the measured protein stability index for the input variant. Input: D8Q
1.87

Returns the measured protein stability index for the input variant. Input: A20L
2.6

Returns the measured protein stability index for the input variant. Input: K9H
2.94

Returns the measured protein stability index for the input variant. Input: V15T
2.66
